Just for reference, patent US12551421B2 is where these values come from.

Experiment: Water solubility / critical micelle concentration of n-heptyl-glyceryl ether
Type: physicochemical
Details: water, without component B); read-out: water solubility before micelles are forming
From the text: N-heptyl-glyceryl ether has a water solubility of approximately 2 g/l before micelles are forming.
assay metric: solubility

- molecule: "CCCCCCCOCC(O)CO (stereo not shown) [n-heptyl glyceryl ether]"
  assay metric: "solubility"
  result: "~2000 µg/mL"
